tested on: biosynthesis of cholesterol (sterol synthesis) in rat liver homogenate; test: CSI screen: inhibition of sterol synthesis (incorporation of cholesterol-14C-acetate into nonsaponifiable lipid) by rat liver homogenate; format: biochemical; conditions: one-hour period, cholestyramine-fed rats, read-out: IC50 (Micromoles/liter) CSI
Form field: IC50 (one value per entry).
Number in nM, nothing else.

Reference set (3 entries):
INSERT INTO assay_data (compound, target, value_observed) VALUES
  ('O=C1C[C@@H](O)C[C@H](CCn2c(-c3ccc(F)cc3)c(C(=O)Nc3ccccc3)c(-c3ccccc3)c2C(F)(F)F)O1 (relative stereo) [Compound 2]', 'biosynthesis of cholesterol (sterol synthesis) in rat liver homogenate', 400),
  ('O=C1C[C@@H](O)C[C@H](CCn2c(-c3ccc(F)cc3)c(-c3ccccc3)c(C(=O)Nc3ccccc3)c2C(F)(F)F)O1 (relative stereo) [Compound 3]', 'biosynthesis of cholesterol (sterol synthesis) in rat liver homogenate', 18),
  ('CC[C@H](C)C(=O)O[C@H]1CCC=C2C=C[C@H](C)[C@H](CC[C@@H]3C[C@@H](O)CC(=O)O3)[C@H]21 [Compactin, reference compound]', 'biosynthesis of cholesterol (sterol synthesis) in rat liver homogenate', 26);

Now let's try a different one.
Give recorded IC50. CC(C)c1c(C(=O)Nc2ccccc2)c(-c2ccccc2)c(-c2ccc(F)cc2)n1CC[C@H]1C[C@H](O)CC(=O)O1 (relative stereo) [Compound 1]
35
